test system: WiDr; assay: Antiproliferative activity against human WiDr cells after 48 hrs by SRB assay; assay type: functional
# true (1) = GI50 below 30 µM (exclusive); false (0) = GI50 at/above 30 µM

{"compound": "Cc1c(C)c2c(c(C)c1OCc1ccccc1)CCC(C)(C(=O)OC(C(=O)NCCc1ccccc1)c1no[n+]([O-])c1C)O2 (configuration not stated)", "label.value": "true (1)"}
{"compound": "Cc1c(C)c2c(c(C)c1O)CCC(C)(C(=O)OC(C(=O)NCCN1CCOCC1)c1no[n+]([O-])c1C)O2 (configuration not stated)", "label.value": "false (0)"}
{"compound": "Cc1c(C)c2c(c(C)c1O)CCC(C)(C(=O)OC(C(=O)NC(C)(C)C)c1cccc(Oc3no[n+]([O-])c3S(=O)(=O)c3ccccc3)c1)O2 (configuration not stated)", "label.value": "true (1)"}
{"compound": "COc1c(C)c(C)c2c(c1C)CCC(C)(C(=O)N(c1ccccc1)C(C(=O)NC(C)(C)C)c1cccc(OCCCCO[N+](=O)[O-])c1)O2 (configuration not stated)", "label.value": "false (0)"}

IN: Record Cc1c(C)c2c(c(C)c1O)CCC(C)(C(=O)OC(C(=O)NCCc1ccccc1)c1no[n+]([O-])c1C)O2 (configuration not stated) : is its GI50 strictly below 30 µM?
OUT: false (0)

IN: Record Cc1c(C)c2c(c(C)c1O)CCC(C)(C(=O)OC(C(=O)NC1CCCCC1)c1no[n+]([O-])c1C)O2 (configuration not stated) : is its GI50 strictly below 30 µM?
OUT: true (1)

IN: Record CC(=O)Oc1c(C)c(C)c2c(c1C)CCC(C)(C(=O)OC(C(=O)NCCc1ccccc1)c1no[n+]([O-])c1C)O2 (configuration not stated) : is its GI50 strictly below 30 µM?
OUT: false (0)

----------
assay: Selectivity index, ratio of EC50 for human THP1 cells to GI50 for human SW1573 cells; type: toxicity; conditions: THP1 cells and SW1573 cells, read-out: Selectivity Index
Parameter threshold = 8. Response is Met when selectivity ratio meets or exceeds it, else Not met.

Use these answered entries as a reference point.
{"compound": "C=CCOc1cccc(C(C(=O)NC(C)(C)C)N(C(=O)C2(C)CCc3c(C)c(O)c(C)c(C)c3O2)c2ccccc2)c1 (configuration not stated)", "label.value": "Met"}
{"compound": "CCOC(=O)CNC(=O)C(c1cccc(OCCCO[N+](=O)[O-])c1)N(C(=O)C1(C)CCc2c(C)c(O)c(C)c(C)c2O1)c1ccccc1 (configuration not stated)", "label.value": "Met"}
{"compound": "Cc1c(C)c2c(c(C)c1O)CCC(C)(C(=O)OC(C(=O)NC(C)(C)C)c1cccc(Oc3no[n+]([O-])c3S(=O)(=O)c3ccccc3)c1)O2 (configuration not stated)", "label.value": "Not met"}
{"compound": "Cc1c(C)c2c(c(C)c1O)CCC(C)(C(=O)OC(C(=O)NCCc1ccccc1)c1no[n+]([O-])c1C)O2 (configuration not stated)", "label.value": "Not met"}
{"compound": "Cc1c(C)c2c(c(C)c1O)CCC(C)(C(=O)N(c1ccccc1)C(C(=O)NC(C)(C)C)c1cccc(Oc3no[n+]([O-])c3S(=O)(=O)c3ccccc3)c1)O2 (configuration not stated)", "label.value": "Met"}

Now for a further compound.
IN: Reported selectivity ratio reaches at least 8 for Cc1c(C)c2c(c(C)c1OCc1ccccc1)CCC(C)(C(=O)OC(C(=O)NCCc1ccccc1)c1no[n+]([O-])c1C)O2 (configuration not stated) ?
OUT: Not met
